- testedSystem: ICE (Homo sapiens)
- Sequence (P29466 120-297 limits assumed): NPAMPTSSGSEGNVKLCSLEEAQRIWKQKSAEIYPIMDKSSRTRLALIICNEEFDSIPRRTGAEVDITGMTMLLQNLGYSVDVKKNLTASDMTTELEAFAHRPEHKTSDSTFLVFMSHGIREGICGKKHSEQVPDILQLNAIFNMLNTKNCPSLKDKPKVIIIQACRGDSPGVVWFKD
- Sequence (P29466 317-404 limits assumed): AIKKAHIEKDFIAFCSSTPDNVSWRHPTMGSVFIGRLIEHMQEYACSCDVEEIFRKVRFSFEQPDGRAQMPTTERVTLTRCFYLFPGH
Field 'label' (enum: satisfied / not satisfied). Set to satisfied when Ki is strictly under 1000 nM; else not satisfied.

Exercise: Find out if reported Ki for `O=C[C@H](CC(=O)O)NS(=O)(=O)c1ccccc1Cc1ccccc1` is less than 1000 nM
Key: not satisfied

Exercise: Please check: Ki for CCC(CC)COc1ccccc1S(=O)(=O)NC(C=O)CC(=O)O (centres unmarked) , strictly under 1000 nM or not?
Key: satisfied

Exercise: Below 1000 nM on Ki? Entry O=CC(CC(=O)O)NS(=O)(=O)c1ccccc1OCCc1cccc2ccccc12 (centres unmarked)
Key: satisfied

Exercise: Does the reported Ki of Cc1ccc(-c2ccccc2S(=O)(=O)NC(C=O)CC(=O)O)cc1 (centres unmarked) stay below 1000 nM?
Key: not satisfied
